- test protocol: yeast display, Sf9 membrane polyspecificity reagent, FACS + sequencing; frameworks hold sequencing errors
reported endpoint: polyreactivity (PSR sort gate)

Completed entries (count: 4):
INSERT INTO assay_data (chain_sequence, reported_endpoint, observed_measurement) VALUES
  ('QVQLVESGGGLVQAGGSLRLSSAASGRTFFPNAMGWYRQAPGKERELVAAISSGGGGTYYADSVKGRFTISRDKAKNTVYLQMNRLKPEDTAVYYCAGRNSKVEEEGNYWGQGTQVTVSS', 'polyreactivity (PSR sort gate)', 'low polyreactivity'),
  ('QVQLVESGGGLVQAGGSLRLSCAASGRLFVYNAMGWYRQAPGKEREFVATITSSGGRTYYADSVKGRFTISRDNAKNTVYLQMNSLKPEDSAVYYCAARPQNNGRNPVYRYNYWGQGTQVTVSS', 'polyreactivity (PSR sort gate)', 'high polyreactivity'),
  ('QVQLVESGGGLVQAGGSLRLSCAASGSIFVGNTMGWYRQAPGKERELVAAITWSGGRTYYADSVKGRFTISRDNAKNNVYLQMHSLKPEDTAVYYLKALAYYIRYYYWGKGTQVTVSS', 'polyreactivity (PSR sort gate)', 'high polyreactivity'),
  ('QVQLVESGGGLVQAGGSLRLSCAASGSIFTRNAMGWYRQAPGKERELVATITSNDGSTNYADSVKGRFTISRDNAKNTVYLQMNSLKPEDTAVYYCNRSYGVYSEFDYWGQGTQVTVSS', 'polyreactivity (PSR sort gate)', 'low polyreactivity');

Consider the record given below.
(Q) If you can, please state the reported polyreactivity (PSR sort gate) value of QVKLVESGGGLVQAGRSLRLSCAASGFTFSANTMGWYRQAPGKERELVAAITRGGRTYYADSVKGRFTISRDNAKNTVYLQMNSLKPEDTAVYYCAKRATWYTVTREGYWGQGTQVTVTS .
(A) high polyreactivity

* * *

- test protocol: yeast display, Sf9 membrane polyspecificity reagent, FACS + sequencing; frameworks hold sequencing errors
reported endpoint: polyreactivity (PSR sort gate)

A selection of reference data follows.
INSERT INTO assay_data (chain_sequence, reported_endpoint, observed_measurement) VALUES
  ('QVQLVESGGGLVQAGGSLRLSCAASGSIISAYVMGWYRQAPGKERELVAAITRSGGSTYYADSVKGRFTISRDNAKNTVYLQMNSLTPEDTAVYYCAAKSIIRPYAPRRDDMDYWGQGTQVTVSS', 'polyreactivity (PSR sort gate)', 'low polyreactivity'),
  ('QVQLVESGGGLVQAGGSLRLSCAASGSILYPYAMGWYRQAPGKERELVAAISRGGSTNYADSVKGRFTISRDNAKDTVYLQMNSLKPEDTAVYYCATAYTRFSQRYEYYVIYWQNDYWGQGTQVTVSS', 'polyreactivity (PSR sort gate)', 'low polyreactivity'),
  ('QVQLVESGGGLVQAGGSLRLSCAAAGRIFVGYAMGWYRQAPGKERELVAGISRSGYSTYYADSVKGRFTISRDNAKNTVYLQMNSLKPEDTAVYYCAASWYKNPTRYYYWGQGTQVTVSS', 'polyreactivity (PSR sort gate)', 'high polyreactivity'),
  ('QVQLVESGGGLVQAGGSLRLSCAASGSTFAYYDMGRYRPAPGKERELVAAITIDGRTSYADSVKGRFTISRDNAMNTVYLQMNSLKPEDTAVYYCNTEIRLSKYDYWGQGTQVTVSS', 'polyreactivity (PSR sort gate)', 'low polyreactivity'),
  ('QVQLVESGGGLVQAGGSLRLSCAASGSTFIWNAMGWYRQAPGKVRELVAAISSGGSTYYADSVKGRFTISRDNAKNTVYLQMNSLKPEDTAVYYCAAEYVYNVSEQRYAVYSTDDYWGQGSQVTVSS', 'polyreactivity (PSR sort gate)', 'low polyreactivity'),
  ('QVQLVESGGGLVQAGGSLRLSCAASGFIFSKYGMGWYRQAPGKERELVAAISIRGGNTYYADSVKGRFTISRDNAKNTFYLQMYSLKPEDTAVYYCAAGLRAYPYGTRSGVYYYWGQGTQVTVSS', 'polyreactivity (PSR sort gate)', 'high polyreactivity'),
  ('QVQLVESGGGLVQAGGSLRLSCAASGRIFRVNAMGWYRQAPGKERELVATITGSGGSTYYADSVKGRFTISRDNAKNTVYLQMNSLKPEDTAVYYCAAVSYWPTDRYYSWGQGTQVTVSS', 'polyreactivity (PSR sort gate)', 'low polyreactivity'),
  ('QVQLVESGGGLVQAGGSLRLSCAASGRTYGYAMGSYRPAPGKERELVARITWRGGSTSYADSVKGRFTISRDNAKNTVYLQMNILKPEDTAVYYCAAGFYFPVYTYVRIRYYYWGQGTQVTVSS', 'polyreactivity (PSR sort gate)', 'high polyreactivity');

(Q) Request the reported polyreactivity (PSR sort gate) associated with QVQLVESGGGLVQAGGSLRLSCAASGSTFSAYTMGWDRQAPGKERELVAAIRFDGGRTYYADSVKGRFTISRDNAKNTVYLQMNSLKPEDTAVYYCPAWQSYSYDYWGQGTQLTVSS
(A) high polyreactivity
